System: HeLa
assay.protocol: Cytotoxicity against human HeLa cells after 72 hrs by resazurin based fluorescence assay
Assay type: functional, cell-based
assay.context: Homo sapiens, HeLa, 72 h
pIC50: −log10 of the molar value.
observed.property: pIC50

[
  {
    "chemical.string": "COc1ccc(-c2cccc(Br)n2)cc1",
    "observed.property": "pIC50",
    "relational.operator": "=",
    "endpoint.result": 5.70
  },
  {
    "chemical.string": "COc1ccc(-c2cccc(-c3cc(OC)c(OC)c(OC)c3)n2)cc1OC",
    "observed.property": "pIC50",
    "relational.operator": "=",
    "endpoint.result": 7.59
  },
  {
    "chemical.string": "COc1ccc(-c2cccc(-c3ccc(OC)cc3OC)n2)c(OC)c1",
    "observed.property": "pIC50",
    "relational.operator": "=",
    "endpoint.result": 7.96
  },
  {
    "chemical.string": "COc1cccc(-c2cccc(-c3ccc(OC)cc3OC)n2)c1",
    "observed.property": "pIC50",
    "relational.operator": "=",
    "endpoint.result": 7.17
  },
  {
    "chemical.string": "COc1ccc(-c2ccnc(-c3ccc(OC)cc3OC)c2)c(OC)c1",
    "observed.property": "pIC50",
    "relational.operator": "<",
    "endpoint.result": 4.60
  },
  {
    "chemical.string": "COc1ccc(-c2cccc(-c3ccc(OC)c(OC)c3)n2)cc1OC",
    "observed.property": "pIC50",
    "relational.operator": "<",
    "endpoint.result": 4.60
  },
  {
    "chemical.string": "COc1ccc(-c2cccc(Br)n2)c(OC)c1",
    "observed.property": "pIC50",
    "relational.operator": "<",
    "endpoint.result": 4.30
  },
  {
    "chemical.string": "COc1ccc(-c2cccc(-c3ccc(OC)cc3)n2)cc1",
    "observed.property": "pIC50",
    "relational.operator": "=",
    "endpoint.result": 5.70
  },
  {
    "chemical.string": "COc1ccc(/C=C\\c2cc(OC)c(OC)c(OC)c2)cc1O",
    "observed.property": "pIC50",
    "relational.operator": "=",
    "endpoint.result": 9.05
  },
  {
    "chemical.string": "COc1ccc(-c2cccc(-c3ccc(OC)c(OC)c3)n2)cc1",
    "observed.property": "pIC50",
    "relational.operator": "<",
    "endpoint.result": 4.60
  },
  {
    "chemical.string": "COc1cc(-c2cccc(-c3ccc(O)cc3)n2)cc(OC)c1OC",
    "observed.property": "pIC50",
    "relational.operator": "=",
    "endpoint.result": 5.10
  }
]

###

Test system: HeLa
assay.protocol: Cytotoxicity against human HeLa cells after 72 hrs by resazurin based fluorescence assay
Assay type: functional, cell-based
assay.context: Homo sapiens, HeLa, 72 h

[
  {
    "chemical.string": "COc1ccc(-c2cccc(-c3ccc(OC)c(O)c3)n2)c(OC)c1",
    "relational.operator": "=",
    "IC50, µM": 0.0014
  },
  {
    "chemical.string": "COc1cc(-c2cccc(Br)n2)cc(OC)c1OC",
    "relational.operator": "=",
    "IC50, µM": 12
  },
  {
    "chemical.string": "COc1cc(-c2ccnc(-c3cc(OC)c(OC)c(OC)c3)c2)cc(OC)c1OC",
    "relational.operator": "=",
    "IC50, µM": 0.79
  },
  {
    "chemical.string": "COc1ccc(-c2cccc(-c3ccccc3OC)n2)c(OC)c1",
    "relational.operator": ">",
    "IC50, µM": 25
  },
  {
    "chemical.string": "COc1ccc(-c2cccc(-c3cccc(OC)c3OC)n2)c(OC)c1",
    "relational.operator": ">",
    "IC50, µM": 50
  },
  {
    "chemical.string": "COc1ccc(-c2ccc(-c3cc(OC)c(OC)c(OC)c3)nc2)cc1OC",
    "relational.operator": ">",
    "IC50, µM": 25
  }
]

###

Consider the following molecules and their measured pIC50 readings.
System: HeLa
assay.protocol: Cytotoxicity against human HeLa cells after 72 hrs by resazurin based fluorescence assay
Type: functional, cell-based
assay.context: Homo sapiens, HeLa, 72 h
pIC50: −log10 of the molar value.

[
  {
    "chemical.string": "COc1ccc(-c2cccc(-c3cc(OC)c(OC)c(OC)c3)n2)cc1",
    "pIC50": "< 4.30"
  },
  {
    "chemical.string": "COc1ccc(-c2cccc(-c3c(OC)cccc3OC)n2)c(OC)c1",
    "pIC50": "< 4.30"
  },
  {
    "chemical.string": "COc1ccc(-c2cccc(-c3ccc(OC)c(OC)c3)n2)c(OC)c1",
    "pIC50": "< 4.30"
  },
  {
    "chemical.string": "COc1cc(OC)cc(-c2cccc(-c3ccc(OC)cc3OC)n2)c1",
    "pIC50": "< 4.30"
  },
  {
    "chemical.string": "COc1ccc(-c2cccc(-c3ccc(O)cc3)n2)c(OC)c1",
    "pIC50": "< 4.00"
  },
  {
    "chemical.string": "COc1ccc(-c2cccc(-c3ccc(O)cc3)n2)cc1OC",
    "pIC50": 6.07
  },
  {
    "chemical.string": "COc1cc(-c2ccc(-c3cc(OC)c(OC)c(OC)c3)nc2)cc(OC)c1OC",
    "pIC50": 5.57
  },
  {
    "chemical.string": "COc1ccc(-c2cccc(-c3ccc(O)cc3)n2)cc1",
    "pIC50": "< 4.30"
  },
  {
    "chemical.string": "COc1ccc(-c2cccc(-c3ccc(OC)cc3OC)n2)cc1",
    "pIC50": 8.42
  },
  {
    "chemical.string": "COc1cc(-c2ccc(Br)cn2)cc(OC)c1OC",
    "pIC50": 4.85
  },
  {
    "chemical.string": "COc1ccc(-c2ccc(-c3ccc(OC)cc3OC)nc2)c(OC)c1",
    "pIC50": "< 4.30"
  }
]

###

System: A549
assay.protocol: Cytotoxicity against human A549 cells after 72 hrs by resazurin based fluorescence assay
Format: functional, cell-based
assay.context: Homo sapiens, A549, 72 h
pIC50: −log10 of the molar value.
Listed molecules paired with reported pIC50

[
  {
    "chemical.string": "COc1ccc(-c2cccc(-c3ccc(OC)cc3)n2)cc1",
    "pIC50": "< 4.00"
  },
  {
    "chemical.string": "COc1cc(-c2cccc(-c3cc(OC)c(OC)c(OC)c3)n2)cc(OC)c1OC",
    "pIC50": "< 4.30"
  },
  {
    "chemical.string": "COc1ccc(-c2cccc(-c3ccc(OC)c(OC)c3)n2)cc1",
    "pIC50": "< 4.60"
  },
  {
    "chemical.string": "COc1ccc(-c2cccc(-c3ccc(OC)cc3OC)n2)cc1",
    "pIC50": 7.05
  },
  {
    "chemical.string": "COc1cc(-c2cccc(-c3ccc(O)cc3)n2)cc(OC)c1OC",
    "pIC50": "< 4.60"
  },
  {
    "chemical.string": "COc1cc(OC)cc(-c2cccc(-c3ccc(OC)cc3OC)n2)c1",
    "pIC50": "< 4.60"
  },
  {
    "chemical.string": "COc1ccc(-c2cccc(-c3c(OC)cc(OC)cc3OC)n2)c(OC)c1",
    "pIC50": "< 4.30"
  },
  {
    "chemical.string": "COc1ccc(-c2cccc(-c3ccc(OC)c(OC)c3)n2)c(OC)c1",
    "pIC50": "< 4.60"
  },
  {
    "chemical.string": "COc1ccc(-c2cccc(Br)n2)cc1",
    "pIC50": 5.70
  },
  {
    "chemical.string": "COc1ccc(-c2cccc(-c3cc(OC)c(OC)c(OC)c3)n2)cc1",
    "pIC50": "< 4.30"
  },
  {
    "chemical.string": "COc1ccc(-c2ccc(-c3cc(OC)c(OC)c(OC)c3)nc2)cc1OC",
    "pIC50": "< 4.30"
  },
  {
    "chemical.string": "COc1cccc(-c2cccc(-c3ccc(OC)cc3OC)n2)c1",
    "pIC50": 6.25
  },
  {
    "chemical.string": "COc1cc(-c2ccnc(-c3cc(OC)c(OC)c(OC)c3)c2)cc(OC)c1OC",
    "pIC50": 5.10
  },
  {
    "chemical.string": "COc1cc(-c2ccc(Br)cn2)cc(OC)c1OC",
    "pIC50": "< 4.60"
  },
  {
    "chemical.string": "COc1ccc(-c2cccc(-c3ccccc3OC)n2)c(OC)c1",
    "pIC50": "< 4.30"
  },
  {
    "chemical.string": "COc1ccc(-c2cccc(-c3ccc(OC)cc3OC)n2)c(OC)c1",
    "pIC50": 7.10
  },
  {
    "chemical.string": "COc1ccc(-c2ccc(-c3ccc(OC)cc3OC)nc2)c(OC)c1",
    "pIC50": "< 4.00"
  },
  {
    "chemical.string": "COc1ccc(-c2cccc(-c3ccc(O)cc3)n2)c(OC)c1",
    "pIC50": 5.37
  },
  {
    "chemical.string": "COc1ccc(-c2cccc(-c3c(OC)cccc3OC)n2)c(OC)c1",
    "pIC50": "< 4.00"
  },
  {
    "chemical.string": "COc1ccc(-c2cccc(-c3cccc(OC)c3OC)n2)c(OC)c1",
    "pIC50": "< 4.30"
  }
]

// data source = ChEMBL document CHEMBL3232884
